experiment: yeast display, Sf9 membrane polyspecificity reagent, FACS + sequencing; frameworks hold sequencing errors
recordedMetric: polyreactivity (PSR sort gate)

[
  {
    "entrySequence": "QVQLVESGGGLVQAGGSLRLSCAASGSIFSYNAMGWYRQATGKERELVARITRGGDGTYYADSVKGRFTISRDNAKNTVYLQMNSLKPEDTAVYYCAATPYWYHLRVEGGYWGQGTQVTVSS",
    "recordedMetric": "polyreactivity (PSR sort gate)",
    "assayResult": "low polyreactivity"
  },
  {
    "entrySequence": "QVQLVESGGGLVQAGGSLRLSCAASGITFEIYVMGWYRQAPGKERELVAAITSDDTTYADSVKGRFTISRDNAKNTVYLQMNSLKPEDTAVYYCAADYYGVGVGPYSPADEYDYWGQGTQVTVSS",
    "recordedMetric": "polyreactivity (PSR sort gate)",
    "assayResult": "low polyreactivity"
  },
  {
    "entrySequence": "QVQLVESGGGLVQAGGSLRLTCAASGSIFTYYVMGWYRQAPGKERELVATITGSSGSTYYADSVKGRFTISRDNAKNTVFLQMNSLKPEDTAVYYCATYGTLVYYYYPDMEYWGQGTQVTVSS",
    "recordedMetric": "polyreactivity (PSR sort gate)",
    "assayResult": "low polyreactivity"
  },
  {
    "entrySequence": "QVQLVESGAGLVQAGGSLRLSCAASGFIFNRYAMGWYRQAPGKERELVAAIRGSGGSTYADSVKGRFTISRDNAKNTVYLQMNSLKPEDTAVYYCNKERPRRNGQVARYDYWGQGTQVTVSS",
    "recordedMetric": "polyreactivity (PSR sort gate)",
    "assayResult": "low polyreactivity"
  },
  {
    "entrySequence": "QVQLVESGGGLVQAGGSLRLSCAASGFTFWYYAMGWYRQAPGKEREMVAAISRSGTSTYYADSVKGRFTISRDNAKNTVYLQMNSLKPEDSAVYYCNVLRVKSITYLMDYWGQGTQVTVSS",
    "recordedMetric": "polyreactivity (PSR sort gate)",
    "assayResult": "high polyreactivity"
  },
  {
    "entrySequence": "QVQLEESGGGLVQAGGSLRLSCAASGSIFTYYAMGSYRQAPGKERELVARITRGGGTTYYADSVKGRFTISRDNAKNTVYLQMNSLKPEDTAVYYCAADFFAGTPRTFDYWGQGSQVTVSS",
    "recordedMetric": "polyreactivity (PSR sort gate)",
    "assayResult": "high polyreactivity"
  },
  {
    "entrySequence": "QVQLVESGGGLVQAGGSLRLSCAASGSTFSNYAMGWYRQAPGKERELVASISNGGSTNYADSVKGRFTISRDNAKNNVYLQMNSLKPEDTAVYYCNAESKAKYDYWGQGTQVTVSS",
    "recordedMetric": "polyreactivity (PSR sort gate)",
    "assayResult": "low polyreactivity"
  },
  {
    "entrySequence": "QVQLVESGGGLVQAGGSLRLSCDASGITFWGYVMGWYRQAPGKERELVAAISSSGGRTYYADSVKGRFTISLDNAKNTVYLQMNSLKPEDTAVYYCAARFLYANRYSVDYDYCGQGTQVTVSS",
    "recordedMetric": "polyreactivity (PSR sort gate)",
    "assayResult": "high polyreactivity"
  }
]

I need polyreactivity (PSR sort gate) for every entry listed below, if you could help.
1. QVQLVESGGGLVQPGGSLRLSCAASGSTFGGYAKGWYRQAPGQERELVAAITWDTGTTYYADSVKGRFTISRDNAKNTVYLQMNSLKPEDTAVYYCAAVGSTTTGVRRRGYWGQGTQVNVSS
2. QVQLVESGGGLVQAGGSLRLSCAASGYTFDLYAMGWYRQAPGKERELVADISSGGSTNYADSVKGRFTISRDNAKNTVYLQMNSLKPEDTAVYYCAVDADRTLFGQYYVSEYGGGYWGQGTQVTVSS
3. QVQLVESGGGLVQSGGSLRLSCAASGLTFRRNPMGRYRQAPGKERELVATITSGGSTNYADSVKGRFTISRDNAKNTVYLQMNSLKTEDTAVYYCAARTTYITPWAGRYFSWDYDYWGQGTQVTVSS

Reply:
high polyreactivity
low polyreactivity
high polyreactivity
